pIC50: recorded values
TARGET ENTITY: [35S]-TBPS binding, rat brain cortical membranes
TEST PROTOCOL: Steroid inhibition of [35S]-TBPS binding
SETUP CONDITIONS: 3 nM [35S]-TBPS, in the presence of 5 mM GABA
pIC50: −log10 of the molar value.

// below: answered compounds
>  <COMPOUND>
CCOC[C@@]1(O)CC[C@@]2(C)[C@H](CC[C@@H]3[C@@H]2CC[C@]2(C)[C@@H]([C@H](C)N[C@@H](C)c4ccccc4)CC[C@@H]32)C1 [Example 212]

>  <MEASURED RESULT>
5.00 to 6.00

$$$$
>  <COMPOUND>
COC[C@@]1(O)CC[C@H]2[C@H](CC[C@@H]3[C@@H]2CC[C@]2(C)[C@@H]([C@H](C)n4cc(C#N)cn4)CC[C@@H]32)C1 [Example 151]

>  <MEASURED RESULT>
5.00 to 6.00

$$$$
>  <COMPOUND>
CCC[C@@]1(O)CC[C@H]2[C@H](CC[C@@H]3[C@@H]2CC[C@@]2(C)[C@H]3CC[C@]2(O)[C@@H](C)Cn2cc(C#N)cn2)C1 [Example 347]

>  <MEASURED RESULT>
5.00 to 6.00

$$$$
>  <COMPOUND>
CCC[C@@]1(O)CC[C@@]2(C)[C@H](CC[C@@H]3[C@@H]2CC[C@]2(C)[C@@H]([C@@H](C)Cn4nnnc4C)CC[C@@H]32)C1 [Example 315]

>  <MEASURED RESULT>
> 7.00

$$$$
>  <COMPOUND>
COC[C@@]1(O)CC[C@H]2[C@H](CC[C@@H]3[C@@H]2CC[C@]2(C)[C@@H]([C@@H](C)Cn4ccc(C#N)n4)CC[C@@H]32)C1 [Example 36]

>  <MEASURED RESULT>
> 7.00

$$$$

Inquiry: Item under review: COC[C@@]1(O)CC[C@H]2[C@@H](CC[C@@H]3[C@@H]2CC[C@]2(C)[C@@H]([C@H](C)Cn4nnnc4C)CC[C@@H]32)C1 [Example 56] . Reported pIC50?
Reply text: 6.00 to 7.00

Inquiry: Item under review: CCOC[C@@]1(O)CC[C@H]2[C@H](CC[C@@H]3[C@@H]2CC[C@]2(C)[C@@H]([C@@H](C)n4cc(C#N)cn4)CC[C@@H]32)C1 [Example 162] . Reported pIC50?
Reply text: 6.00 to 7.00

Inquiry: Item under review: CCOC[C@@]1(O)CC[C@H]2[C@H](CC[C@@H]3[C@@H]2CC[C@]2(C)[C@@H]([C@@H](C)Nc4ccc(C#N)nc4)CC[C@@H]32)C1 [Example 261] . Reported pIC50?
Reply text: 6.00 to 7.00

Inquiry: Item under review: CC[C@@H](Nc1cccc(C#N)c1)[C@H]1CC[C@H]2[C@@H]3CC[C@@H]4C[C@@](O)(COC)CC[C@@H]4[C@H]3CC[C@]12C [Example 497] . Reported pIC50?
Reply text: 6.00 to 7.00

----------
pIC50: recorded values
TARGET ENTITY: [35S]-TBPS binding, rat brain cortical membranes
TEST PROTOCOL: Steroid inhibition of [35S]-TBPS binding
SETUP CONDITIONS: 3 nM [35S]-TBPS, in the presence of 5 mM GABA
Protocol: [^35S]-t-Butylbicyclophosphorothionate (TBPS) binding assays using rat brain cortical membranes in the presence of 5 mM GABA has been described (Gee et al, J. Pharmacol. Exp. Ther. 1987, 241, 346-353; Hawkinson et al, Mol. Pharmacol. 1994, 46, 977-985; Lewin, A. H et al., Mol. Pharmacol. 1989, 35, 189-194). Briefly, cortices are rapidly removed following decapitation of carbon dioxide-anesthetized Sprague-Dawley rats (200-250 g). […]
pIC50: −log10 of the molar value.

// below: answered compounds
>  <SMILES DATA>
CCC[C@@]1(O)CC[C@H]2[C@H](CC[C@@H]3[C@@H]2CC[C@]2(C)[C@@H]([C@@H](C)Cn4cc(C#N)cn4)CC[C@@H]32)C1

>  <TARGET ENTITY>
[35S]-TBPS binding, rat brain cortical membranes

>  <pIC50>
> 7.00

$$$$
>  <SMILES DATA>
CCOC[C@@]1(O)CC[C@H]2[C@H](CC[C@@H]3[C@@H]2CC[C@]2(C)[C@@H]([C@@H](C)NS(=O)(=O)c4ccc(C#N)cc4)CC[C@@H]32)C1

>  <TARGET ENTITY>
[35S]-TBPS binding, rat brain cortical membranes

>  <pIC50>
> 7.00

$$$$
>  <SMILES DATA>
CC[C@@]1(O)CC[C@H]2[C@H](CC[C@@H]3[C@@H]2CC[C@]2(C)[C@@H]([C@@H](C)Cn4nccc4C#N)CC[C@@H]32)C1

>  <TARGET ENTITY>
[35S]-TBPS binding, rat brain cortical membranes

>  <pIC50>
> 7.00

$$$$
>  <SMILES DATA>
COC[C@@]1(O)CC[C@H]2[C@H](CC[C@@H]3[C@@H]2CC[C@]2(C)[C@@H]([C@@H](C)Nc4ccc(C#N)cc4)CC[C@@H]32)C1

>  <TARGET ENTITY>
[35S]-TBPS binding, rat brain cortical membranes

>  <pIC50>
> 7.00

$$$$

Could you now consider this next compound?
Inquiry: # returns recorded pIC50 (system: [35S]-TBPS binding, rat brain cortical membranes) for COC[C@@]1(O)CC[C@H]2[C@H](CC[C@@H]3[C@@H]2CC[C@]2(C)[C@@H]([C@@H](C)NC(=O)c4ccc(F)cc4)CC[C@@H]32)C1
Reply text: 6.00 to 7.00

----------
IC50: recorded values
TARGET ENTITY: [35S]-TBPS binding, rat brain cortical membranes
TEST PROTOCOL: Steroid inhibition of [35S]-TBPS binding
SETUP CONDITIONS: 3 nM [35S]-TBPS, in the presence of 5 mM GABA

>  <MOLECULE>
CCC[C@@]1(O)CC[C@@]2(C)[C@H](CC[C@@H]3[C@@H]2[C@@H](O)C[C@]2(C)[C@@H]([C@H](C)Cn4cc(C#N)cn4)CC[C@@H]32)C1 [Example 310]

>  <TARGET ENTITY>
[35S]-TBPS binding, rat brain cortical membranes

>  <IC50>
100 to 1000 nM

$$$$
>  <MOLECULE>
CCOC[C@@]1(O)CC[C@H]2[C@H](CC[C@@H]3[C@@H]2CC[C@]2(C)[C@@H]([C@H](C)Cc4ccc(C)nc4C#N)CC[C@@H]32)C1 [Example 415]

>  <TARGET ENTITY>
[35S]-TBPS binding, rat brain cortical membranes

>  <IC50>
< 100 nM

$$$$
>  <MOLECULE>
CCOC[C@@]1(O)CC[C@H]2[C@H](CC[C@@H]3[C@@H]2CC[C@]2(C)[C@@H]([C@H](C)Cn4ccc(C#N)n4)CC[C@@H]32)C1 [Example 287]

>  <TARGET ENTITY>
[35S]-TBPS binding, rat brain cortical membranes

>  <IC50>
< 100 nM

$$$$

Inquiry: Item under review: CCOC[C@@]1(O)CC[C@H]2[C@H](CC[C@@H]3[C@@H]2CC[C@]2(C)[C@@H]([C@@H](C)NC(=O)c4ccc(F)cc4F)CC[C@@H]32)C1 [Example 132] . Reported IC50?
Reply text: < 100 nM
